All figures here come from the RepoRT retention time repository.

# Run description: HILIC, Waters ACQUITY UPLC BEH Amide, 100 × 2.1 mm, 1.7 µm; A: water + 0.125% formic acid + 10 mM ammonium formate; B: 5% water + 95% acetonitrile + 0.125% formic acid + 10 mM ammonium formate; gradient (min/%B) 0/100 2/100 7.7/70 9.5/40 10.25/30 12.75/100 17/100
# Protocol conditions: stereoisomer not certain
Measurement kind: LC retention time (min)

O=C(c1ccccc1)c1ccc2n1CCC2C(=O)O (stereo unspecified) [Toradol] :: 1.29
CC(=O)Oc1ccc2c(C)cc(=O)oc2c1 [4-Methylumbelliferyl acetate] :: 1.06
NC(Cc1c[nH]c2ccccc12)C(=O)O (stereo unspecified) [Tryptophan] :: 6.92
CCC(C(N)=O)N1CCCC1=O (stereo unspecified) [Levetiracetam] :: 1.45
CCCC=CC=O [2-Hexenal] :: 1.39
CC(O)C(C)C(=O)O (stereo unspecified) [Methyl-3-hydroxybutyric acid] :: 6.22
CC(CN(C)C)CN1c2ccccc2CCc2ccccc21 (stereo unspecified) [Trimipramine] :: 2.25
CNc1ncnc2c1ncn2C1OC(CO)C(O)C1O (stereo unspecified) [6-Methyladenosine] :: 3.56

[1] CN(CCOc1ccc(NS(C)(=O)=O)cc1)CCc1ccc(NS(C)(=O)=O)cc1 [Dofetilide]
[2] CC1CC2C3CC(F)C4=CC(=O)C(Cl)=CC4(C)C3(F)C(O)CC2(C)C1(O)C(=O)CO (stereo unspecified) [Halometasone]
IN: Hi there! Just curious which has the higher LC retention time between 1 and 2 . Answer with the label corresponding to your selection.
OUT: 1

----------
# Run description: HILIC, Waters ACQUITY UPLC BEH Amide, 100 × 2.1 mm, 1.7 µm; A: water + 0.125% formic acid + 10 mM ammonium formate; B: 5% water + 95% acetonitrile + 0.125% formic acid + 10 mM ammonium formate; gradient (min/%B) 0/100 2/100 7.7/70 9.5/40 10.25/30 12.75/100 17/100
# Protocol conditions: stereoisomer not certain
Measurement kind: LC retention time (min)

Examples from the recorded data:
CCCCCCCCC=CCCCCCCCC(=O)OCC(O)CO (stereo unspecified) :: 1.19
C#CC1(O)CCC2C3C(C)CC4=C(CCC(=O)C4)C3CCC21C (stereo unspecified) :: 1
CCCC(=O)NCC(=O)O :: 3.73

[1] CC(=O)OCC1OC(Oc2c(-c3ccc(O)c(O)c3)oc3cc(O)cc(O)c3c2=O)C(O)C(O)C1O (stereo not drawn) [Quercetin-3-O-beta-glucopyranosyl-6'-acetate]
[2] NC(CCSCC(N)C(=O)O)C(=O)O (stereo unspecified)
IN: Hi there! Just curious which has the higher LC retention time between 1 and 2 . Answer with the label corresponding to your selection.
OUT: 2
(2: 9.91 min, 1: 4.61 min)

----------
# Run description: HILIC, Waters ACQUITY UPLC BEH Amide, 100 × 2.1 mm, 1.7 µm; A: water + 0.125% formic acid + 10 mM ammonium formate; B: 5% water + 95% acetonitrile + 0.125% formic acid + 10 mM ammonium formate; gradient (min/%B) 0/100 2/100 7.7/70 9.5/40 10.25/30 12.75/100 17/100
# Protocol conditions: stereoisomer not certain
Measurement kind: LC retention time (min)

Examples from the recorded data:
CC(C)(C#N)c1cc(Cn2cncn2)cc(C(C)(C)C#N)c1 [Anastrozole] :: 0.98
OCc1c[nH]c2ccccc12 [Indole-3-carbinol] :: 1.24
CC(Oc1c(Cl)cccc1Cl)C1=NCCN1 (stereo not given) [Lofexidine] :: 2.65
CCOC(=O)C1(c2ccccc2)CCN(CCC(C#N)(c2ccccc2)c2ccccc2)CC1 [Diphenoxylate] :: 1.41
COc1c(N2CC3CCCNC3C2)c(F)cc2c(=O)c(C(=O)O)cn(C3CC3)c12 (stereo not given) [Moxifloxacin] :: 4.69
CC(C)(CO)C(O)C(=O)NCCCO (stereo not given) [Panthenol] :: 1.9

[P] CC(N)C(=O)O (stereo not given) [Alanine]
[Q] Cc1cc(O)cc(=O)o1 [4-Hydroxy-6-methyl-2-pyrone]
[R] CCC1=CC2CN(C1)Cc1c([nH]c3ccccc13)C(C(=O)OC)(c1cc3c(cc1OC)N(C)C1C(O)(C(=O)OC)C(OC(C)=O)C4(CC)C=CCN5CCC31C54)C2 (stereo not given) [Vinorelbine]
IN: Please list the entries, largest LC retention time first. Answer by listing the labels in the requested order.
OUT: P, R, Q

----------
# Run description: HILIC, Waters ACQUITY UPLC BEH Amide, 100 × 2.1 mm, 1.7 µm; A: water + 0.125% formic acid + 10 mM ammonium formate; B: 5% water + 95% acetonitrile + 0.125% formic acid + 10 mM ammonium formate; gradient (min/%B) 0/100 2/100 7.7/70 9.5/40 10.25/30 12.75/100 17/100
# Protocol conditions: stereoisomer not certain
Measurement kind: LC retention time (min)

Examples from the recorded data:
NC(Cc1ccc(O)c([N+](=O)[O-])c1)C(=O)O (centres undefined) :: 6.88
CC12CCC(=O)C=C1CCC1C2C(=O)CC2(C)C1CCC2(O)C(=O)CO (centres undefined) :: 1.29
COc1ccnc(CS(=O)c2nc3ccc(OC(F)F)cc3[nH]2)c1OC (centres undefined) :: 1.21
CC(C)C1CCC(C(=O)NC(Cc2ccccc2)C(=O)O)CC1 (centres undefined) [Nateglinide] :: 1.3
CC1(C)OC2COC3(COS(N)(=O)=O)OC(C)(C)OC3C2O1 (centres undefined) [Topiramate] :: 1.1

[a] O=c1c(-c2ccc(O)cc2)coc2cc(O)ccc12
[b] NC(=O)CCC(NC(=O)CCC(N)C(=O)O)C(=O)O (centres undefined)
[c] O=c1[nH]c(=S)ccn1C1OC(CO)C(O)C1O (centres undefined)
IN: Form: Sort by [LC retention time] Order [ ascending ] Answer by listing the labels in the requested order.
OUT: a, c, b
(a: 1.39 min, c: 2.27 min, b: 9.55 min)

----------
# Run description: HILIC, Waters ACQUITY UPLC BEH Amide, 100 × 2.1 mm, 1.7 µm; A: water + 0.125% formic acid + 10 mM ammonium formate; B: 5% water + 95% acetonitrile + 0.125% formic acid + 10 mM ammonium formate; gradient (min/%B) 0/100 2/100 7.7/70 9.5/40 10.25/30 12.75/100 17/100
# Protocol conditions: stereoisomer not certain
Measurement kind: LC retention time (min)

CN1CCc2cc(Cl)c(O)cc2C(c2ccccc2)C1 (stereo not drawn) [UNII-UGT5535REQ] :: 2.89
CC(C)CCCC(C)C1CCC2C3CC=C4CC(OC(=O)NCCN(C)C)CCC4(C)C3CCC12C (stereo not drawn) [3-beta-Cholest-5-en-3-yl [2-(dimethylamino)ethyl]carbamate] :: 2.34
Nc1nc(Cl)nc2c1ncn2C1OC(CO)C(O)C1O (stereo not drawn) [2-Chloroadenosine] :: 2.69
CC(=O)OCCc1ccccc1 [Phenethylacetate] :: 1.02
CC#CC1(O)CCC2C3CCC4=CC(=O)CCC4=C3C(c3ccc(N(C)C)cc3)CC21C (stereo not drawn) [Mifepristone] :: 1
COC1C=COC2(C)Oc3c(C)c(O)c4c(O)c(c5c(nc6cc(C)ccn65)c4c3C2=O)NC(=O)C(C)=CC=CC(C)C(O)C(C)C(O)C(C)C(OC(C)=O)C1C (stereo not drawn) [Rifaximin] :: 1.18
NC(Cc1cnc[nH]1)C(=O)O (stereo not drawn) [Histidine] :: 9.48
Cc1cc2c(s1)Nc1ccccc1N=C2N1CCN(C)CC1 [Olanzapine] :: 4.56
CC(C(O)c1ccc(O)cc1)N1CCC(Cc2ccccc2)CC1 (stereo not drawn) [Ifenprodil] :: 3.17
CNC(C)Cc1ccccc1 (stereo not drawn) [Methamphetamine] :: 3.33

[P] CCC(C)C(=O)OC1CCC=C2C=CC(C)C(CCC3CC(O)CC(=O)O3)C21 (stereo not drawn) [Mevastatin]
[Q] Cn1c(N)nc2c(ncn2C2OC(CO)C(O)C2O)c1=O (stereo not drawn) [1-Methylguanosine]
IN: Hi there! Just curious which has the higher LC retention time between P and Q . Answer with the label corresponding to your selection.
OUT: Q

[A] CC(=O)NC(C)C(=O)O (stereo not drawn) [N-Acetylalanine]
[B] COc1cc(/C=C/C(=O)O)ccc1O [Ferulic acid]
IN: Could you tell me which of these two has the smaller LC retention time figure? First: A Second: B Answer with the label corresponding to your selection.
OUT: B

----------
# Run description: HILIC, Waters ACQUITY UPLC BEH Amide, 100 × 2.1 mm, 1.7 µm; A: water + 0.125% formic acid + 10 mM ammonium formate; B: 5% water + 95% acetonitrile + 0.125% formic acid + 10 mM ammonium formate; gradient (min/%B) 0/100 2/100 7.7/70 9.5/40 10.25/30 12.75/100 17/100
# Protocol conditions: stereoisomer not certain
Measurement kind: LC retention time (min)

Examples from the recorded data:
CC(NC(=O)C(N)CCCN=C(N)N)C(=O)O (stereo not given) [Arg-Ala] :: 9.66
CN1C2CCC1CC(OC(=O)C(CO)c1ccccc1)C2 (stereo not given) [Atropine] :: 4.32
Nc1ncnc2c1ncn2C1OC(CO)CC1O (stereo not given) [Cordycepin] :: 3.54
O=C(O)C1CCC(C(=O)O)CC1 (stereo not given) [1,4-Cyclohexanedicarboxylic acid] :: 1.56
NCC(O)c1ccccc1 (stereo not given) [Phenylethanolamine] :: 5.51

[P] O=C(O)CC(O)CC(O)C=Cc1c(C2CC2)nc2ccccc2c1-c1ccc(F)cc1 (stereo not given) [Pitavastatin]
[Q] CSCCC(NC(=O)CCC(N)C(=O)O)C(=O)O (stereo not given) [gamma-Glutamylmethionine]
IN: Could you tell me which of these two has the smaller LC retention time figure? First: P Second: Q Answer with the label corresponding to your selection.
OUT: P
